- Test system: sweet potato root-knot nematodes
- experimentSummary: Nematode Control Test Example 1: emulsions mixed with infested soil, cherry tomato pot test
- Type: in vivo
- statedConditions: scale 0-4, mean; cherry tomato, after six weeks; sprayed liquid 10 ppm, concentration in soil 0.3 ppm
readoutName: Root-knot parasitism level
Output: the number by itself.

Record CO[C@H]1C[C@H](O[C@@H]2/C(C)=C/C[C@@H]3C[C@@H](C[C@]4(CC[C@H](C)[C@@H](C5CCCCC5)O4)O3)OC(=O)[C@@H]3C=C(C)/C(=N/O)[C@H]4OC/C(=C\C=C\[C@@H]2C)[C@]43O)O[C@@H](C)[C@@H]1O , field Root-knot parasitism level: 4.00

Record CO/N=C1\C[C@]2(C[C@@H]3C[C@@H](C/C=C(\C)C[C@@H](C)/C=C/C=C4\CO[C@@H]5[C@H](O)C(C)=C[C@@H](C(=O)O3)[C@]45O)O2)O[C@H](/C(C)=C/C(C)C)[C@H]1C , field Root-knot parasitism level: 1.33

Record CC1=C[C@H]2C(=O)O[C@H]3C[C@@H](C/C=C(\C)C[C@@H](C)/C=C/C=C4\CO[C@H]([C@@H]1O)[C@@]42O)O[C@]1(C3)C[C@H](O)[C@H](C)[C@@H](/C(C)=C/C(C)C)O1 , field Root-knot parasitism level: 4.00

Record CO[C@H]1C[C@H](O[C@H]2[C@H](C)O[C@@H](O[C@@H]3/C(C)=C/C[C@@H]4C[C@@H](C[C@]5(C=C[C@H](C)[C@@H](C6CCCCC6)O5)O4)OC(=O)[C@@H]4C=C(C)[C@@H](O)[C@H]5OC/C(=C\C=C\[C@@H]3C)[C@]54O)C[C@@H]2OC)O[C@@H](C)[C@@H]1O , field Root-knot parasitism level: 0.58

meta.source: patent US20170360029A1
